Procedure details: NCI Yeast Anticancer Drug Screen. Data for the cln2 rad14 strain (AID 165);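 note: 0% = growth equal to vehicle treated cultures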
Experimental parameters: S. cerevisiae cln2 rad14 strain, at 50.0 µM, hits give high values
This is part of a sample that, as a whole, favours compounds with a hit. Of some 79,000 tested, about 15% had one in any assay.
Measured parameter: growth inhibition (%)
# unit: % | format: bare number

Request: Fill in the blank: the reported growth inhibition of COc1ccc(-c2cc(C(=O)O)c3cccc(C(F)(F)F)c3n2)cc1 is ____.
Response: 64.5

Request: Fill in the blank: the reported growth inhibition of O=C(O)/C(=C\c1ccc(Cl)cc1)c1ccc(C(F)(F)F)cc1[N+](=O)[O-] is ____.
Response: 97.6

Request: Fill in the blank: the reported growth inhibition of Cc1ccc(S(=O)(=O)N/N=C2\CC(C)OC3=C2CCCCCC3)cc1 (stereo not drawn) is ____.
Response: 77.5

Request: Fill in the blank: the reported growth inhibition of CCO/C=C1N=C(/C=C/c2ccccc2Cl)OC/1=O is ____.
Response: 20.2

Request: Fill in the blank: the reported growth inhibition of O=C(NCCc1c(-c2ccccc2)[nH]c2ccccc12)C(F)(F)C(F)(F)F is ____.
Response: 81.6

Request: Fill in the blank: the reported growth inhibition of NC(=O)C1CCCN1C(=O)C1CCCN(Cc2ccc(CN3CCCC(C(=O)N4CCCC4C(N)=O)C3)cc2)C1 (stereo not drawn) is ____.
Response: 74.7

Request: Fill in the blank: the reported growth inhibition of C1=NC(N(Cc2ccccc2)Cc2ccccc2)N(Cc2ccccc2)N1 (stereo not drawn) is ____.
Response: 89.8

Request: Fill in the blank: the reported growth inhibition of C=[CH][Sn]([CH]=C)([S]c1cccc2cccnc12)[S]c1cccc2cccnc12 is ____.
Response: 75.5

Request: Fill in the blank: the reported growth inhibition of COc1ccc(N2C(=O)C(=O)C(C(C)=O)C2=O)cc1 (stereo not drawn) is ____.
Response: 99

Request: Fill in the blank: the reported growth inhibition of CCCCOC(=O)C(C)OC(=O)NNc1ccccc1 (stereo not drawn) is ____.
Response: 36.7

Request: Fill in the blank: the reported growth inhibition of O=C(CBr)c1cccc(OC(=O)c2ccccc2)c1 is ____.
Response: 29.9

Request: Fill in the blank: the reported growth inhibition of C=CCCCCCCCCC(=O)OCC=C is ____.
Response: 26.6

Request: Fill in the blank: the reported growth inhibition of CCCC(C)(O)C(C)CC (stereo not drawn) is ____.
Response: -6.9

Request: Fill in the blank: the reported growth inhibition of Nc1ccccc1[S][Sn]([c]1ccccc1)([c]1ccccc1)[c]1ccccc1 is ____.
Response: 98

Request: Fill in the blank: the reported growth inhibition of Nc1ncnc(N2CCOCC2)c1N is ____.
Response: 83.8

Request: Fill in the blank: the reported growth inhibition of Clc1ccc(/C(=C/c2ccccc2)Cn2ccnc2)cc1 is ____.
Response: 70.5

Request: Fill in the blank: the reported growth inhibition of CC(=O)Nc1ccc2c(ccc3cccc[n+]32)c1 is ____.
Response: 95.2

Request: Fill in the blank: the reported growth inhibition of COC1OC2=CCC3C(=O)NC(=O)C3C2[C@H](OCc2ccccc2)C1OCc1ccccc1 (stereo partly drawn) is ____.
Response: 93.5

Request: Fill in the blank: the reported growth inhibition of Clc1nc2ccccc2nc1N1CCCCCC1 is ____.
Response: -21.4

Request: Fill in the blank: the reported growth inhibition of O=C(Nc1ccc(Cl)cc1Cl)C1C(=O)OC2(CCCCC2)OC1=O is ____.
Response: 62.8

Request: Fill in the blank: the reported growth inhibition of CC(=O)O[C@@H]1CO[C@H]2O[C@H]3[C@@H](C(C=O)=C[C@H](O)[C@@H]4C5=C(C(C)C)CC[C@]5(C)CC[C@@]34C)[C@@]2(O)C1=O is ____.
Response: 91

Request: Fill in the blank: the reported growth inhibition of COC(=O)/C(=C\c1cn(C(C)=O)c2ccccc12)P(=O)(OC)OC is ____.
Response: 63.9

Request: Fill in the blank: the reported growth inhibition of CNC(=S)N(C)C(=S)Nn1c(=O)c(C)nn(C)c1=S is ____.
Response: 57.9
